Listing: GI50 of selected compounds
- System: MDA-MB-435
- method_description: NCI tumour cell line growth inhibition, 48 h
The source made the active and inactive calls. Cut-off read from the data, not from the text of the source: active = GI50 up to about 1.1 µM and inactive = higher.

Here is how some compounds turned out for GI50.
{"columns": ["compound", "target_system", "GI50"],
 "data": [
  ["CNC(=O)O/N=C1\\N(C)CN(c2ccccc2)C12CCN(CCCC(=O)c1ccc(F)cc1)CC2", "MDA-MB-435", "45.9 µM (inactive)"],
  ["N/N=C(\\c1nc2ccc([N+](=O)[O-])cc2nc1O)C(O)c1ccc(Cl)c(Cl)c1 (stereo unspecified)", "MDA-MB-435", "71.6 µM (inactive)"],
  ["Cc1ccc(CNc2ccc(Br)cc2)cc1", "MDA-MB-435", "22.8 µM (inactive)"],
  ["O=C(O)CN(CC(=O)O)c1ccccc1", "MDA-MB-435", "70.6 µM (inactive)"],
  ["COC(=O)c1c(C)c2c(c(C)c1O)OC(=O)c1c(C)cc(O)c(C=O)c1O2", "MDA-MB-435", "> 100 µM (inactive)"]
]}

Shifting focus to the compound that follows.
Lookup: // fetch MDA-MB-435 GI50 for `Cc1cc(OCC(=O)O)c(Cl)cc1Cl`
Found: > 100 µM (inactive)
